System: Leishmania donovani axenic amastigote parasites
Assay: Leishmania donovani axenic amastigote proliferation assay
Format: cell-based
Conditions: axenic amastigotes in vitro, read-out: L. donovani amastigotes EC50

>  <molecule>
Cc1cnc2nc(-c3cc(NC(=O)N(C)C4CCOC4)ccc3Cl)[nH]c2c1 (centres unmarked) [Compound 232]

>  <EC50>
> 25 µM

$$$$
>  <molecule>
O=C(Nc1ccc(Cl)c(-c2nc3ncc(-c4ccccc4)cc3[nH]2)c1)N1CCCC1 [Example 291]

>  <EC50>
0.076 µM

$$$$
>  <molecule>
O=C(Nc1ccc(Cl)c(-c2nc3ncc(-c4ccc(OCC5CC5)cc4)cc3[nH]2)c1)c1ccco1 [Compound 36]

>  <EC50>
1.03 µM

$$$$
>  <molecule>
COc1cc(C(=O)Nc2ccc(Cl)c(-c3nc4ncc(C)cc4[nH]3)c2)ccn1 [Compound 129]

>  <EC50>
> 25 µM

$$$$
>  <molecule>
Cc1cnc2nc(-c3cc(NC(=O)c4nc(C)n[nH]4)ccc3Cl)[nH]c2c1 [Compound 203]

>  <EC50>
> 25 µM

$$$$
>  <molecule>
Cc1cnc2nc(-c3cc(NC(=O)Cn4cccnc4=O)ccc3Cl)[nH]c2c1 [Compound 168]

>  <EC50>
> 25 µM

$$$$
>  <molecule>
Cc1cnc2nc(-c3cc(NC(=O)Cc4c(F)cccc4F)ccc3Cl)[nH]c2c1 [Compound 87]

>  <EC50>
> 25 µM

$$$$
>  <molecule>
O=C(Nc1cccc(-c2nc3ncc(-c4ccc(OC(F)(F)F)cc4)cc3[nH]2)c1)c1ccco1 [Compound 41]

>  <EC50>
5.9 µM

$$$$
